TARGET_OF_ASSAY: p70S6K (Homo sapiens)
TEST_NAME: Luciferase-coupled chemiluminescence kinase assay (ATP consumption)
Type: biochemical
Experimental: One measure of inhibition is Ki. […] The Ki for a compound is determined from the IC50 based on three assumptions. First, only one compound molecule binds to the enzyme and there is no cooperativity. […] Kinase activity is measured as the percent of ATP consumed following the kinase reaction using luciferase-luciferin-coupled chemiluminescence. […] Total ATP consumption was limited to 25-60% and the IC50 values correlate well with those determined by radiometric assays.
METRIC_NAME: IC50

Cc1ccc(Cl)cc1N1CCN(c2ncnc3[nH]nc(Br)c23)CC1    < 0.1 µM
CCc1n[nH]c2ncnc(N3CCN(c4cccc(Cl)c4)CC3)c12    < 0.1 µM
CCc1n[nH]c2ncnc(N3CCN(c4cccc(Cl)c4)C(C(=O)OC)C3)c12 (stereo not drawn)    1 to 10 µM
Cc1ccc(Cl)cc1N1CCN(c2ncnc3[nH]nc(C#CCO)c23)CC1    < 0.1 µM
Cc1ccc(Cl)cc1N1CCN(c2ncnc3[nH]nc(-c4ccc(O)cc4)c23)CC1    < 0.1 µM

Incoming: Quick one: IC50 for COc1ccc(N2CCN(c3ncnc4[nH]ccc34)CC2)cc1 ?
Outgoing: 1 to 10 µM

Incoming: What measured IC50 goes with Cc1ccc(Cl)cc1N1CCN(c2ncnc3[nH]nc(C(C)C)c23)CC1 ?
Outgoing: < 0.1 µM

Incoming: Fill blank: measured IC50 of the molecule CCc1n[nH]c2ncnc(N3CCN(c4cc(Cl)cc(CNCCN(C)C)c4OC)CC3)c12 is ____.
Outgoing: 0.1 to 1 µM

Incoming: Param item = CCc1n[nH]c2ncnc(N3CCN(c4cc(Cl)c(O)cc4C)CC3)c12 ; retrieve measured IC50.
Outgoing: < 0.1 µM

###

TARGET_OF_ASSAY: p70S6K (Homo sapiens, UniProt P23443)
Sequence (P23443 whole entry): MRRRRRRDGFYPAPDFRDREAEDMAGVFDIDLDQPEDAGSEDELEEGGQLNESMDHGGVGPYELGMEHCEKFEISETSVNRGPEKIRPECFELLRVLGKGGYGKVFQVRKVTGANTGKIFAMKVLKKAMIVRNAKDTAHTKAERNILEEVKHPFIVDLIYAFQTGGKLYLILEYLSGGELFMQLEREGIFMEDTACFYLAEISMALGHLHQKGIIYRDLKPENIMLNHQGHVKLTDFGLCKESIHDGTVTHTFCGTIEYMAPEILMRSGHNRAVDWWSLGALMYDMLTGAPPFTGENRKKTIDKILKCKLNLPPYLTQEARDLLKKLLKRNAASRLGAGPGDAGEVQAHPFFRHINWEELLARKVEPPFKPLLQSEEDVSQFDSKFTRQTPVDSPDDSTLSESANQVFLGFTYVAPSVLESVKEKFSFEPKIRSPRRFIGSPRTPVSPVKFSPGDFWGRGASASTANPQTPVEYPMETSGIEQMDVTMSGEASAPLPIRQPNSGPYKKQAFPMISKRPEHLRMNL
TEST_NAME: Luciferase-coupled chemiluminescence kinase assay (ATP consumption)
Type: biochemical
METRIC_NAME: IC50

Below are worked cases with known answers.
Cc1ccc(Cl)cc1N1CCN(c2ncnc3[nH]nc(C(F)(F)F)c23)CC1 [Entry 348]    < 100 nM
Fc1ccc(-c2ccc(Cl)c(N3CCN(c4ncnc5[nH]nc(Br)c45)CC3)c2)c(OCCN2CCCC2)c1 [Entry 289]    < 100 nM
Cc1ccc(Cl)cc1N1CCN(c2ncnc3[nH]nc(CC4CCNCC4)c23)CC1 [Entry 394]    1000 to 10000 nM
CCc1n[nH]c2ncnc(N3CC4CC3CN4c3cccc(Cl)c3)c12 (stereo not drawn) [Entry 344]    < 100 nM
Cc1ccc(Cl)cc1N1CCN(c2ncnc3[nH]nc(-c4ccccc4)c23)CC1 [Entry 327]    < 100 nM

As a next step, examine the molecule that follows.
Incoming: Item CCc1n[nH]c2ncnc(N3CCN(c4cccc(Cl)c4)C(C(=O)NCCN(C)C)C3)c12 (stereo not drawn) [Entry 360] has what recorded IC50?
Outgoing: 1000 to 10000 nM

###

TARGET_OF_ASSAY: p70S6K (Homo sapiens, UniProt P23443)
TEST_NAME: Luciferase-coupled chemiluminescence kinase assay (ATP consumption)
Type: biochemical
MEASUREMENT_CONDITIONS: Table 1; class symbols per key
Description: One measure of inhibition is Ki. […] The Ki for a compound is determined from the IC50 based on three assumptions. First, only one compound molecule binds to the enzyme and there is no cooperativity. […] Kinase activity is measured as the percent of ATP consumed following the kinase reaction using luciferase-luciferin-coupled chemiluminescence. […] Total ATP consumption was limited to 25-60% and the IC50 values correlate well with those determined by radiometric assays.
Each entry below carries its reported IC50.

Known IC50 results, listed for orientation:
CCc1n[nH]c2ncnc(N3CCN(c4cc(Cl)cc(OC)c4)CC3)c12    < 100 nM
Fc1ccc(N2CCN(c3ncnc4[nH]nc(Br)c34)CC2)cc1    100 to 1000 nM
Brc1cc(NCCN2CCCC2)cc(N2CCN(c3ncnc4[nH]nc(Br)c34)CC2)c1    < 100 nM

Please look at the following compound next.
Incoming: Entry Cc1c(CCCN2CCCC2)cc(F)cc1N1CCN(c2ncnc3[nH]nc(Br)c23)CC1 : reported IC50 = ?
Outgoing: < 100 nM

###

Reported pIC50 values are given for each entry in this list.
TARGET_OF_ASSAY: UniProt:P31749
TEST_NAME: Luciferase-coupled chemiluminescence kinase assay (ATP consumption)
Assay type: biochemical
MEASUREMENT_CONDITIONS: read-out: AKT-1 IC50
pIC50: −log10 of the molar value.

Cc1ccc(Cl)cc1N1CCN(c2ncnc3[nH]nc(/C=C4/C[C@H]5CNC[C@H]5C4)c23)CC1    5.00 to 6.00
Cc1n[nH]c2ncnc(N3CCN(c4cccc(Cl)c4)CC3)c12    ≤ 5.00
CCc1n[nH]c2ncnc(N3CCN(c4cccc(Cl)c4)C(C(=O)O)C3)c12 (centres unmarked)    ≤ 5.00
CCc1n[nH]c2ncnc(N3CCN(c4cc(Cl)cc(N5CCOCC5)c4C)CC3)c12    5.00 to 6.00
Cc1ccc(Cl)cc1N1CCN(c2nc(-c3ccccc3)nc3[nH]nc(C)c23)CC1    5.00 to 6.00
COc1cccc(N2CCN(c3ncnc4[nH]ccc34)CC2)c1    ≤ 5.00
Cc1ccc(Cl)cc1N1CCN(c2ncnc3[nH]nc(-c4ccncc4)c23)CC1    5.00 to 6.00
CCc1n[nH]c2ncnc(N3CCN(c4cc(Cl)c(OC)cc4C)CC3)c12    5.00 to 6.00

Incoming: Which pIC50 value belongs to CCCc1n[nH]c2ncnc(N3CCN(c4cc(Cl)ccc4C)CC3)c12 ?
Outgoing: 5.00 to 6.00

Incoming: For the compound CCc1n[nH]c2ncnc(N3CCN(c4cc(Cl)cc(C(=O)N5CCN(C)CC5)c4OC)CC3)c12 , what pIC50 is on record?
Outgoing: ≤ 5.00

###

TARGET_OF_ASSAY: AktK (Homo sapiens)
Sequence (P31749 whole entry): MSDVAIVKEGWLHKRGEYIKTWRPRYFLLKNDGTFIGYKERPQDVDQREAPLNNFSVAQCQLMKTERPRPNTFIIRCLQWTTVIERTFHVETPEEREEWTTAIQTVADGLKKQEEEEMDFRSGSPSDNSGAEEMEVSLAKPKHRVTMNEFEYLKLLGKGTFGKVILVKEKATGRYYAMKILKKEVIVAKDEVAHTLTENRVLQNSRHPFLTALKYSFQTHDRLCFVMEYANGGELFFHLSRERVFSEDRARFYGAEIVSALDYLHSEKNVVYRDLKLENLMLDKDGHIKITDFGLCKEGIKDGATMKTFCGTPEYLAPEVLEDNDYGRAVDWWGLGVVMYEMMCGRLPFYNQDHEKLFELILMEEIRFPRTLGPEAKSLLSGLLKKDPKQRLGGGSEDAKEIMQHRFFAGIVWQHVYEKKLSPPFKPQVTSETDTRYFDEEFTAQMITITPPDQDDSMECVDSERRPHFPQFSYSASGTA
TEST_NAME: Luciferase-coupled chemiluminescence kinase assay (ATP consumption)
Assay type: biochemical
MEASUREMENT_CONDITIONS: read-out: AKT-1 IC50
pIC50: −log10 of the molar value.
METRIC_NAME: pIC50

Here is how some compounds turned out for pIC50.
CCc1n[nH]c2ncnc(N3CCN(c4cc(Cl)cc(C(=O)OC)c4OC)CC3)c12    5.00 to 6.00
CCc1n[nH]c2ncnc(N3CCN(c4cc(Cl)c(OCCCN(C)C)cc4C)CC3)c12    5.00 to 6.00
Cc1ccc(Cl)cc1N1CCN(c2ncnc3[nH]nc(C(F)(F)F)c23)CC1    5.00 to 6.00
CCc1n[nH]c2ncnc(N3CCN(c4cccc(Cl)c4)C(C(=O)OC)C3)c12 (centres unmarked)    ≤ 5.00
COC(CCC(F)(F)F)(OC)c1cc(NCCN2CCCC2)c(C)c(N2CCN(c3ncnc4[nH]nc(Br)c34)CC2)c1    > 7.00

Incoming: Please look up its pIC50: Cc1ccc(Cl)cc1N1CCN(c2ncnc3[nH]nc(-c4ccc(O)cc4)c23)CC1
Outgoing: 5.00 to 6.00

Incoming: Any idea what its pIC50 is? The compound is Cc1ccc(Cl)cc1N1CCN(c2ncnc3[nH]nc(Nc4ccccc4)c23)CC1
Outgoing: 5.00 to 6.00

Incoming: Which pIC50 is listed for Cc1ccc(Cl)cc1N1CCN(c2ncnc3[nH]nc(C#CCN4CCCC4)c23)CC1 ?
Outgoing: 5.00 to 6.00

###

Below, each of the compounds is paired with its reported pIC50 value.
TARGET_OF_ASSAY: p70S6K (Homo sapiens, UniProt P23443)
TEST_NAME: Luciferase-coupled chemiluminescence kinase assay (ATP consumption)
Format: biochemical
pIC50: −log10 of the molar value.

Incoming: Short answer please: pIC50, p70S6K (Homo sapiens, UniProt P23443), entry COc1ccccc1N1CCN(c2ncnc3[nH]cnc23)CC1
Outgoing: 6.00 to 7.00

Incoming: Any idea what pIC50 came out for COC(=O)/C=C/c1n[nH]c2ncnc(N3CCN(c4cc(Cl)ccc4C)CC3)c12 on p70S6K (Homo sapiens, UniProt P23443)?
Outgoing: > 7.00

Incoming: Which measured pIC50 belongs to Fc1ccccc1N1CCN(c2ncnc3[nH]ccc23)CC1 , tested on p70S6K (Homo sapiens, UniProt P23443)?
Outgoing: 6.00 to 7.00

Incoming: Find pIC50 (p70S6K (Homo sapiens, UniProt P23443)) for the entry CC(C)=CCc1n[nH]c2ncnc(N3CCN(c4cc(Cl)ccc4C)CC3)c12
Outgoing: > 7.00

Incoming: Entry CCc1n[nH]c2ncnc(N3CCN(c4cccc(Cl)c4)CC3C(=O)NC)c12 (centres unmarked) , system p70S6K (Homo sapiens, UniProt P23443): what pIC50 was measured?
Outgoing: 5.00 to 6.00

Incoming: Observed pIC50 on p70S6K (Homo sapiens, UniProt P23443) for COCCOCc1n[nH]c2ncnc(N3CCN(c4cc(Cl)ccc4C)CC3)c12 , please.
Outgoing: > 7.00
